System: Escherichia coli ATCC 25922
Format: cell-based
Details: ATCC 25922
Peptide text beside a SMILES is read from it. * marks the point of attachment. Acm = CC(=O)NC*
Quantity name: MIC E. coli

For the molecule CSCC[C@H](NC(=O)[C@H](CCCNC(=N)N)NC(=O)[C@H](Cc1c[nH]c2ccccc12)NC(=O)[C@H](CCC(N)=O)NC(=O)[C@H](Cc1c[nH]c2ccccc12)NC(=O)[C@H](CCCNC(=N)N)NC(=O)[C@H](CCCNC(=N)N)NC(=O)[C@H](CSCNC(C)=O)NC(=O)[C@H](CCCCN)NC(=O)[C@@H](N)Cc1ccccc1)C(=O)N[C@@H](CCCCN)C(=O)N[C@@H](CCCCN)C(=O)N[C@@H](CC(C)C)C(=O)N[C@@H](C)C(=O)N[C@@H](C)C(=O)O [LFB A14] (H-FKC(Acm)RRWQWRMKKLAA-OH) , report MIC E. coli.
25 µg/mL
